Measured values drawn from patent US9079913B2 for this set.

- tested system: recombinant human His-tagged MDM2 protein (residues 1-118) (Homo sapiens (Human))
- Sequence (Q00987 1-118): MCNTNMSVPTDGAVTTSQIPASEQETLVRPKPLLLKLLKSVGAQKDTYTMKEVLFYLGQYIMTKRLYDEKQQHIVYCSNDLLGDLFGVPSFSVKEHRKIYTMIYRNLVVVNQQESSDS
- protocol: Fluorescence-polarization MDM2 binding assay;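 also: fluorescence polarization read after three hours of incubation in potassium phosphate buffer containing bovine gamma globulin and Triton X-100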
- protocol conditions: Table 19A; FP binding assay; read-out: MDM2 IC50
pIC50: −log10 of the molar value.
Here, each record is paired with measured pIC50 data.

Example cases with answers are listed next.
molecule | measured
CC(C)(C)C[C@H]1N[C@@H](C(=O)NC2CCC(OC(=O)[C@H](Cc3ccccc3)NC(=O)OC(C)(C)C)CC2)[C@H](c2cccc(Cl)c2F)[C@@]12C(=O)Nc1cc(Cl)ccc12 (stereo partly drawn) [MI-908] | < 5.00
CC(C)(C)C[C@H]1N[C@@H](C(=O)NCC[C@H](O)C=O)[C@H](c2cccc(Cl)c2)[C@@]12C(=O)Nc1cc(Cl)c(F)cc12 [MI-219-M1 (a)] | > 6.00

Now let's try a different one.
Query block: Give its pIC50 value. Item: CC(C)(C)C[C@H]1N[C@@H](C(=O)NCC[C@](C)(O)CO)[C@H](c2cccc(Cl)c2F)[C@@]12C(=O)Nc1cc(Cl)ccc12 [MI-789]
Result block: > 5.52

* * *

Reported pIC50 values for a set of compounds
- Test system: cancer cell lines with wild-type p53 / mutated or deleted p53 (ATCC)
- protocol: Cell growth assay (WST-8), other cancer cell lines
- Assay type: cell-based
- protocol conditions: Homo sapiens, PC-3, Table 19A; PC-3 cells, deleted p53, cell growth; read-out: PC-3 (deleted p53) IC50
pIC50 here: minus log base 10 of the concentration, concentration in moles per litre.

compound | measured
CC(C)(C)C[C@H]1N[C@@H](C(=O)NCCCCN2CCCC2)[C@H](c2cccc(Cl)c2F)[C@@]12C(=O)Nc1cc(Cl)c(F)cc12 [MI-765] | 5.59
CC[C@H](C)[C@H](N)C(=O)OC1CCC(NC(=O)[C@@H]2N[C@H](CC(C)(C)C)[C@]3(C(=O)Nc4cc(Cl)ccc43)[C@H]2c2cccc(Cl)c2F)CC1 (stereo partly drawn) [MI-904] | 5.51

Query block: Which pIC50 is listed for CC(C)[C@H](N)C(=O)OC1CCC(NC(=O)[C@@H]2N[C@H](CC(C)(C)C)[C@]3(C(=O)Nc4cc(Cl)ccc43)[C@H]2c2cccc(Cl)c2F)CC1 (stereo partly drawn) [MI-902] ?
Result block: 5.40

* * *

The entries below come with measured pIC50 values attached.
- Tested on: cancer cell lines with wild-type p53 / mutated or deleted p53 (ATCC)
- protocol: Cell growth assay (WST-8), other cancer cell lines
- Assay type: cell-based
- protocol conditions: Table 19A; PC-3 cells, deleted p53, cell growth; read-out: PC-3 (deleted p53) IC50
Quick note: pIC50 values are minus log10 of concentrations in mol/L.

Query block: Item CC(C)(C)C[C@H]1N[C@@H](C(=O)NCC2CC(O)C(O)C2)[C@H](c2cccc(Cl)c2)[C@@]12C(=O)Nc1cc(Cl)c(F)cc12 (stereo partly shown) [MI-519-37] has what recorded pIC50?
Result block: 4.85

Query block: For the compound shown here, CC(O)C(O)CCNC(=O)[C@@H]1N[C@H](CC(C)(C)C)[C@]2(C(=O)Nc3cc(Cl)c(F)cc32)[C@H]1c1cccc(Cl)c1 (stereo partly shown) [MI-519-31] , give the reported pIC50.
Result block: 4.61

Query block: May I ask what pIC50 has been recorded for CC(C)(C)C[C@H]1N[C@@H](C(=O)NC2CCC(NS(C)(=O)=O)CC2)[C@H](c2cccc(Cl)c2F)[C@@]12C(=O)Nc1cc(Cl)ccc12 (stereo partly shown) [MI-771] ?
Result block: 4.86
